Each entry below carries its reported IC50.
- target or system: human CXCR2 (Homo sapiens (Human))
- Sequence (P25025 whole entry): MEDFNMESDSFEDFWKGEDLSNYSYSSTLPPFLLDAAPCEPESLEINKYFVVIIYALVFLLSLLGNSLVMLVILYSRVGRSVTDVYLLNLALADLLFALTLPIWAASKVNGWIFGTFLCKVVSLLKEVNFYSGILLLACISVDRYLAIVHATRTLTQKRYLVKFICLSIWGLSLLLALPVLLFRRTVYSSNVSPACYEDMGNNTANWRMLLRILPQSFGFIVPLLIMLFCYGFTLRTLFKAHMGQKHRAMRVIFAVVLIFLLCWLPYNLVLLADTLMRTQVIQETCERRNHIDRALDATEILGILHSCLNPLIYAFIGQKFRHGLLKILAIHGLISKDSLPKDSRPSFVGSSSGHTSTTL
- test protocol: CXCR2 inhibition: calcium fluorescence assay (FLIPR) with chemokine IL-8
- reported conditions: CHO-K1 cells stably transfected with human CXCR2 and Gα16, Fluo-4 calcium response
Field format: number, assumed nM, no unit text.

Below are worked cases with known answers.
INSERT INTO measurements (sample_smiles, quantitative_result) VALUES
  ('CC(C)(NC(=O)c1ccc2c(c1OCCCOc1ccccc1)CCCC2)C(=O)O', 2100),
  ('CC(C)(NC(=O)c1ccc2sccc2c1OCCOc1ccccc1)C(=O)O', 1700),
  ('CC(C)(NC(=O)c1ccc2ccsc2c1OCCCc1ccccc1)C(=O)O', 600);

### Prompt Please report the recorded IC50 for CC(C)(NC(=O)c1ccc2c(c1OCCCCc1ccccc1)CCCC2)C(=O)O .
### Response 2000

### Prompt Please report the recorded IC50 for CC(C)(NC(=O)c1ccc2c(c1OCCOc1ccccc1)CCCC2)C(=O)O .
### Response 1000

### Prompt Please report the recorded IC50 for CC(C)(NC(=O)c1ccc2ccsc2c1OCCOc1ccc(F)cc1)C(=O)O .
### Response 800

### Prompt Please report the recorded IC50 for CC(C)(NC(=O)c1ccc2c(c1OCCC1CCCCC1)CCCC2)C(=O)O .
### Response 1400
